Entry source: patent US4209521A

Overview of recorded Potency Ratio (imipramine = 1.0) 5-Hydroxytryptamine for various compounds
Tested on: uptake of 5-hydroxytryptamine in slices of cerebral cortex
method-summary: Inhibition of 5-hydroxytryptamine uptake in brain slices
Assay type: cell-based, rat
stated-conditions: inhibition of 5-hydroxytryptamine uptake, rat cerebral cortex slices, relative to imipramine = 1.0
property-label: Potency Ratio (imipramine = 1.0) 5-Hydroxytryptamine

[[record]]
smiles_data = "O=C(NC(=O)c1ccccc1)NC1CCN(Cc2c[nH]c3ccccc23)CC1"
result_value = 10.0

[[record]]
smiles_data = "COc1ccc2[nH]cc(CN3CCC(NC(=O)NC(=O)c4ccccc4)CC3)c2c1"
result_value = 3.2

[[record]]
smiles_data = "O=C(NC(=O)c1ccccc1)NC1CCN(CCc2c[nH]c3ccccc23)CC1"
result_value = 8.0

[[record]]
smiles_data = "COc1ccc(C(=O)NC(=O)NC2CCN(Cc3c[nH]c4ccccc34)CC2)cc1"
result_value = 5.0

[[record]]
smiles_data = "O=C(NC(=O)c1ccccc1)NC1CCN(Cc2c[nH]c3ccc(O)cc23)CC1"
result_value = 12.3

[[record]]
smiles_data = "O=C(NC(=S)NC1CCN(Cc2c[nH]c3ccccc23)CC1)c1ccccc1"
result_value = 6.5

[[record]]
smiles_data = "O=C(NC(=O)c1ccc(F)cc1)NC1CCN(Cc2c[nH]c3ccccc23)CC1"
result_value = 1.04

[[record]]
smiles_data = "COc1cccc(C(=O)NC(=O)NC2CCN(Cc3c[nH]c4ccccc34)CC2)c1"
result_value = 2.7

[[record]]
smiles_data = "Cc1[nH]c2ccccc2c1CN1CCC(NC(=O)NC(=O)c2ccccc2)CC1"
result_value = 0.8

[[record]]
smiles_data = "O=C(NC(=O)c1cccs1)NC1CCN(Cc2c[nH]c3ccccc23)CC1"
result_value = 7.8

